Origin of values: the RNAGym collection of RNA variant scans (doi:10.1073/pnas.2313332121)

B1: TPR t1 (parent)
chain: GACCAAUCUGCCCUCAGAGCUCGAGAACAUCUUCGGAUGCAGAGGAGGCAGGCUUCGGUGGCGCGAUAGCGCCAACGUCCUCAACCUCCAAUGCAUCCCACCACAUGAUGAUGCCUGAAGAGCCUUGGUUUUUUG

- Variants of: B1
- testDescription: polymerase ribozyme fitness, log enrichment relative to wild type (log ratio); higher = more active; in vitro selection for triplet polymerase activity
Field: polymerase ribozyme fitness (log ratio). Provide a value for each of the variants that follow.
Answers are plain numbers.

Worked examples follow.
{"mutations": "U14G G71A G120C", "recordedResult": -0.108}
{"mutations": "C72U U126C", "recordedResult": -0.816}
{"mutations": "U9C C13U A27U A46C G52A G113A", "recordedResult": -6.07}
{"mutations": "C49A G57A G110C", "recordedResult": -6.31}
{"mutations": "C22G C72G", "recordedResult": -2.12}
{"mutations": "C8U C62A C98U", "recordedResult": -1.15}
{"mutations": "U9A C20A", "recordedResult": -2.35}
{"mutations": "G42C A46U", "recordedResult": -2.24}

Look up polymerase ribozyme fitness (log ratio) for the entries below, preserving their order.
1. A5G C12A G45A U78C C88A
2. G17C A75G C101U
3. C8U G44A C56A C72A U81C A111C

-0.938
-5.29
-3.76

Look up polymerase ribozyme fitness (log ratio) for the entries below, preserving their order.
1. C20A G39C
2. G39A C62G
3. G47U G48U U59A C79U
4. U78A U112C G120A
5. U33A A46C G69U U78G
6. A6G G69U G120U
7. C12U G17C C97G C115G

1. -3.59
2. -2.59
3. -3.11
4. -0.475
5. -2.03
6. 0.637
7. -3.25

Look up polymerase ribozyme fitness (log ratio) for the entries below, preserving their order.
1. C34U C53U U109G A119U A121C
2. C11A A16U A24U C31G C34G A37C C73A C115U G117C
3. C3A A6C A46G C49G G69C C104U
4. G10U C15G
5. C64U A66U

-6.04
-7.35
-3.86
-1.83
-0.148

Look up polymerase ribozyme fitness (log ratio) for the entries below, preserving their order.
1. G48A G58A U78C G110A
2. U7C U78G C82G C99A U112G G128U

1: -1.9; 2: -5.9

Look up polymerase ribozyme fitness (log ratio) for the entries below, preserving their order.
1. G44A C124A
2. U21A C76U A91C
3. G69U A91U C99U U109G
4. G45U G61C

0.456
-2.35
-3.63
-2.72

Look up polymerase ribozyme fitness (log ratio) for the entries below, preserving their order.
1. G63C U112A
2. C34A G71U A75G
3. C70G C72U

1. 0.435
2. -4.12
3. -2.61
